TEST_TARGET: CD28 (human) (UniProt P10747)
ASSAY: flow cytometry, Jurkat cells (CD28)
READOUT_TYPE: MFI at 33.3 nM (MFI)

{"BINDER": "variant CD80 IgV-Fc H18Y/A26E/M47L/D90G (Fc fusion) VIHVTKEVKEVATLSCGYNVSVEELEQTRIYWQKEKKMVLTMMSGDLNIWPEYKNRTIFDITNNLSIVILALRPSDEGTYECVVLKYEKGAFKREHLAEVTLSVKAD", "DISPLAY_UNIT": "MFI", "MFI at 33.3 nM": 2860}
{"BINDER": "variant CD80 IgV-Fc H18Y/A26E/E35D/M47L (Fc fusion) VIHVTKEVKEVATLSCGYNVSVEELEQTRIYWQKDKKMVLTMMSGDLNIWPEYKNRTIFDITNNLSIVILALRPSDEGTYECVVLKYEKDAFKREHLAEVTLSVKAD", "DISPLAY_UNIT": "MFI", "MFI at 33.3 nM": 324}
{"BINDER": "variant CD80 IgV-Fc (inert) H18C/A26P/E35D/M47L/V68M/A71G (Fc fusion) VIHVTKEVKEVATLSCGCNVSVEELPQTRIYWQKDKKMVLTMMSGDLNIWPEYKNRTIFDITNNLSIMILGLRPSDEGTYECVVLKYEKDAFKREHLAEVTLSVKAD", "DISPLAY_UNIT": "MFI", "MFI at 33.3 nM": 1910}
{"BINDER": "variant CD80 IgV-Fc A26E/M47L/A71G/D90G (Fc fusion) VIHVTKEVKEVATLSCGHNVSVEELEQTRIYWQKEKKMVLTMMSGDLNIWPEYKNRTIFDITNNLSIVILGLRPSDEGTYECVVLKYEKGAFKREHLAEVTLSVKAD", "DISPLAY_UNIT": "MFI", "MFI at 33.3 nM": 1960}
{"BINDER": "CD80 H18Y/E35D/M47V/V68M/L85M IgV-Fc (Fc fusion) VIHVTKEVKEVATLSCGYNVSVEELAQTRIYWQKDKKMVLTMMSGDVNIWPEYKNRTIFDITNNLSIMILALRPSDEGTYECVVMKYEKDAFKREHLAEVTLSVKAD", "DISPLAY_UNIT": "MFI", "MFI at 33.3 nM": 373}

(a) variant CD80 IgV-Fc H18Y/A26E/V68M/A71G (Fc fusion) VIHVTKEVKEVATLSCGYNVSVEELEQTRIYWQKEKKMVLTMMSGDMNIWPEYKNRTIFDITNNLSIMILGLRPSDEGTYECVVLKYEKDAFKREHLAEVTLSVKAD
(b) CD80 E35D/M47V/N48K/V68M/K89N IgV-Fc, EAAAK linker (Fc fusion) VIHVTKEVKEVATLSCGHNVSVEELAQTRIYWQKDKKMVLTMMSGDVKIWPEYKNRTIFDITNNLSIMILALRPSDEGTYECVVLKYENDAFKREHLAEVTLSVKADEAAAK
Prompt line: Between these two entries, a and b , state which has the higher MFI at 33.3 nM. // respond with label for picked entry
Response line: b
(b: 2630 MFI, a: 99.4 MFI)

(P) CD80 E35D/T41S/D46E/M47I/V68M/K93R/E95V IgV-Fc (Fc fusion) VIHVTKEVKEVATLSCGHNVSVEELAQTRIYWQKDKKMVLSMMSGEINIWPEYKNRTIFDITNNLSIMILALRPSDEGTYECVVLKYEKDAFRRVHLAEVTLSVKAD
(Q) variant CD80 IgV-Fc M47L/V68M/A71G/D90G (Fc fusion) VIHVTKEVKEVATLSCGHNVSVEELAQTRIYWQKEKKMVLTMMSGDLNIWPEYKNRTIFDITNNLSIMILGLRPSDEGTYECVVLKYEKGAFKREHLAEVTLSVKAD
(R) variant CD80 IgV-Fc (inert) H18V/A26P/E35D/M47L/V68M/A71G (Fc fusion) VIHVTKEVKEVATLSCGVNVSVEELPQTRIYWQKDKKMVLTMMSGDLNIWPEYKNRTIFDITNNLSIMILGLRPSDEGTYECVVLKYEKDAFKREHLAEVTLSVKAD
(S) CD80 E35D/M47V/N48K/V68M/K89N IgV-Fc, (EAAAK)3 linker (Fc fusion) VIHVTKEVKEVATLSCGHNVSVEELAQTRIYWQKDKKMVLTMMSGDVKIWPEYKNRTIFDITNNLSIMILALRPSDEGTYECVVLKYENDAFKREHLAEVTLSVKADEAAAKEAAAKEAAAK
Prompt line: Provide the items ranked by increasing MFI at 33.3 nM. Give me the labels in the order the question wants.
Response line: P, S, R, Q

(1) variant CD80 IgV-Fc H18Y/V68M/A71G/D90G (Fc fusion) VIHVTKEVKEVATLSCGYNVSVEELAQTRIYWQKEKKMVLTMMSGDMNIWPEYKNRTIFDITNNLSIMILGLRPSDEGTYECVVLKYEKGAFKREHLAEVTLSVKAD
(2) variant CD80 IgV-Fc (inert) H18T/A26N/E35D/M47L/V68M/A71G (Fc fusion) VIHVTKEVKEVATLSCGTNVSVEELNQTRIYWQKDKKMVLTMMSGDLNIWPEYKNRTIFDITNNLSIMILGLRPSDEGTYECVVLKYEKDAFKREHLAEVTLSVKAD
Prompt line: Could you tell me which of 1 and 2 has the lower MFI at 33.3 nM reading? Field: selected label. Fill in the label of the entry you choose.
Response line: 2

(a) variant CD80 IgV-Fc (inert) H18F/A26N/E35D/M47V/V68M/A71G/D90K (Fc fusion) VIHVTKEVKEVATLSCGFNVSVEELNQTRIYWQKDKKMVLTMMSGDVNIWPEYKNRTIFDITNNLSIMILGLRPSDEGTYECVVLKYEKKAFKREHLAEVTLSVKAD
(b) variant CD80 IgV-Fc (inert) H18F/A26P/E35D/M47I/V68M/A71G/D90G (Fc fusion) VIHVTKEVKEVATLSCGFNVSVEELPQTRIYWQKDKKMVLTMMSGDINIWPEYKNRTIFDITNNLSIMILGLRPSDEGTYECVVLKYEKGAFKREHLAEVTLSVKAD
Prompt line: # argmax over MFI at 33.3 nM for candidates a and b Identify your pick by its label.
Response line: b
